- method.summary: in vitro
- setup.conditions: human, liver microsomes
observed.property: half-life (min)
Reply with just the number (in min).

Query: Assign half-life to the following record: Cc1sc2c(c1C)C(c1ccc(Cl)cc1)=N[C@@H](CC(=O)OC(C)(C)C)c1nnc(C)n1-2
Result: 35.4
